Target: Heat shock factor protein 1 (Mus musculus, UniProt P38532)
Sequence (P38532 whole entry): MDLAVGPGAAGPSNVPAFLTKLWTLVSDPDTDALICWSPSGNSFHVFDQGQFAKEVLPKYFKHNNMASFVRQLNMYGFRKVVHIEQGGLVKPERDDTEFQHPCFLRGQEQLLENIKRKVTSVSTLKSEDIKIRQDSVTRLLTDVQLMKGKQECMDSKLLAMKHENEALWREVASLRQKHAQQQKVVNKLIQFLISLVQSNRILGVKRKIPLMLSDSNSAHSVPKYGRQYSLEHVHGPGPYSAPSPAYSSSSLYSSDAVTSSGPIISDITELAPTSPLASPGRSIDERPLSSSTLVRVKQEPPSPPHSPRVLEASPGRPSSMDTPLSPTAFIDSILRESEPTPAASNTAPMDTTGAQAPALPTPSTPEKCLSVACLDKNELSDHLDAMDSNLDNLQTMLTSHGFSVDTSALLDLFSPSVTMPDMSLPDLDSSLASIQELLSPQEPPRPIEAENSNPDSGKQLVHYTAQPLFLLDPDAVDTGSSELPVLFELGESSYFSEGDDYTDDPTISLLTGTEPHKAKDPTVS
Assay: enhancement of HSF1-driven luciferase signal – cell-based, NIH3T3, luminescence, dose retest, confirmation (AID 435004);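 note: stress induced by proteasome inhibitor MG132 added 30 min after compound; luciferase reporter driven by HSF1 response element in NIH3T3 cells; actives raise luminescence as potentiators of the MG132 stress response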
Type: functional
The source made the active and inactive calls. Cut-off read from the data, not from the text of the source: actives have a measured EC50 and inactives only a lower limit.
Let's look at some molecules and their measured EC50.

{"columns": ["molecule", "EC50"],
 "data": [
  ["CCOc1cc(/C=C2\\CCCc3c2nc2ccccc2c3C(=O)O)ccc1OC", "> 260 µM (inactive)"],
  ["CCCCn1c(N)c(N(CC(C)C)C(=O)C2CCN(S(=O)(=O)c3ccc(C)c(C)c3)CC2)c(=O)[nH]c1=O", "> 260 µM (inactive)"],
  ["c1ccc(-c2nc(CSc3n[nH]c(-c4cccs4)n3)cs2)cc1", "> 260 µM (inactive)"],
  ["COc1cc(-c2nnc(CSc3nnc(Nc4ccc(C(C)C)cc4)s3)o2)cc(OC)c1OC", "31.8 µM (active)"],
  ["O=C(C[n+]1cccc(C(=O)Nc2ccccc2)c1)c1ccc([N+](=O)[O-])cc1", "64.6 µM (active)"],
  ["Cc1ccc(CNc2c(C=O)c(O)nc3ccccc23)cc1", "> 260 µM (inactive)"],
  ["Cc1ccc(OCc2ccc(C#N)cc2)c(C(=O)c2cc(C#N)c(=O)n(C3CC3)c2)c1", "> 260 µM (inactive)"],
  ["CC(C)(C)NC(=O)C(c1ccncc1)N(C(=O)Cn1nnc(-c2cccs2)n1)C1CCCCC1 (stereo not given)", "> 260 µM (inactive)"],
  ["C/C(=C\\C(=O)Nc1cscc1C)C(=O)O", "> 260 µM (inactive)"],
  ["CCc1cccc(NS(=O)(=O)c2ccc3c(c2)NC(=O)C(C)S3)c1 (stereo not given)", "> 260 µM (inactive)"],
  ["Cc1ccc(N=C2NC(=O)CS2)cc1", "> 260 µM (inactive)"],
  ["Cc1ccc(-c2csc(NC(=O)c3cccc([N+](=O)[O-])c3)n2)cc1", "> 260 µM (inactive)"],
  ["CCOC(=O)Cc1nnc(Nc2cccc(C)c2)c2ccccc12", "> 260 µM (inactive)"],
  ["CC1(C)CC(=O)/C(=C\\c2cccc([N+](=O)[O-])c2)C(C)(C)N1", "18.6 µM (active)"],
  ["Cc1c(OCC(=O)NCCCn2ccnc2)ccc2c3c(c(=O)oc12)CCCC3", "> 260 µM (inactive)"]
]}
